Procedure Text: Apparent permeability across apical to basal side in human Caco-2 cells at 1 uM incubated for 120 mins by LC-MS/MS analysis
Format: ADME, cell-based
Items are presented alongside their recorded Papp A→B at 2 h, 1 µM.

INSERT INTO measurements (compound, result) VALUES
  ('CCc1cc(N2C(=S)N(c3ccc(C#N)c(C(F)(F)F)c3)C(=O)C2(C)C)ccc1OCCN1CCN(CC(=O)Nc2cccc(NC3CCC(=O)NC3=O)c2)[C@H](C)C1 (stereo partly specified)', '< 0.3 ×10⁻⁶ cm/s'),
  ('Cn1c(=O)n([C@H]2CCC(=O)NC2=O)c2cccc(C#CCOC3CCN(C[C@H]4CC[C@H](n5cc(NC(=O)c6cnn7ccc(N8C[C@H]9C[C@@H]8CO9)nc67)c(C(F)F)n5)CC4)CC3)c21', '2.4 ×10⁻⁶ cm/s'),
  ('COc1cc(-c2cn(C)c(=O)c3cnc(N4CCC4)cc23)cc(OC)c1CN1CCC(CN2CCC3(CC2)CN(c2ccc4c(c2)C(=O)N([C@H]2CCC(=O)NC2=O)C4)C3)CC1', '< 0.1 ×10⁻⁶ cm/s');

Item under review: N#Cc1ccc(O[C@H]2CC[C@H](NC(=O)c3ccc(N4CCC(CN5CCN(c6cc7c(cc6F)C(=O)N([C@H]6CCC(=O)NC6=O)C7=O)CC5)CC4)nn3)CC2)cc1Cl . Reported Papp A→B at 2 h, 1 µM?
< 0.1 ×10⁻⁶ cm/s

And what about the compound O=C1CC[C@H](N2Cc3cc(N4CCN(CC5CCN(c6ccc([C@@H]7c8ccc(O)cc8CC[C@@H]7c7ccccc7)cc6)CC5)CC4)ccc3C2=O)C(=O)N1 ?
< 0.1 ×10⁻⁶ cm/s

And what about the compound CNC(=O)COc1cc2cc(Nc3nc(N4CCC(O[C@H]5C[C@H](N6CCC(c7ccc8c(c7F)CN(C7CCC(=O)NC7=O)C8=O)CC6)C5)CC4)ncc3Cl)ccc2n(C(C)C)c1=O (stereo partly specified) ?
< 0.3 ×10⁻⁶ cm/s

Source listed as ChEMBL document CHEMBL6134898.
